Target: VIM-1 (Pseudomonas aeruginosa (strain ATCC 15692 / DSM 22644 / CIP 104116 / JCM 14847 / LMG 12228 / 1C / PRS 101 / PAO1), UniProt A0A0F7KYQ8)
Experiment: biochemical
Details: CCF2-FA substrate, 2 hours at 25° C
pIC50: −log10 of the molar value.
Kindly return satisfied if reported pIC50 is no lower than 9; return not satisfied if it is lower.

// known answers, use as guide
INSERT INTO results (compound, group) VALUES
  ('NCCS(=O)(=O)c1ccc(-c2cnc(O)nc2)c(-c2nnn[nH]2)c1S(N)(=O)=O.O=C(O)C(F)(F)F [Example 137, 2,2,2-trifluoroacetate]', 'not satisfied'),
  ('Cc1ccc(-c2ccc(S(C)(=O)=O)c(S(N)(=O)=O)c2-c2nn[nH]n2)c2nc(N)sc12', 'satisfied');

Ask: Quick check, pIC50 >= 9? NCCS(=O)(=O)c1ccc(-c2cccc(NC(=O)[C@H](N)CO)c2)c(-c2nn[nH]n2)c1S(N)(=O)=O
Result: satisfied

Ask: Quick check, pIC50 >= 9? NCCS(=O)(=O)c1ccc(-c2cccc(N3CCS(=O)(=O)CC3)c2)c(-c2nnn[nH]2)c1S(N)(=O)=O.O=C(O)C(F)(F)F [Example 158, 2,2,2-trifluoroacetate]
Result: not satisfied

Ask: Quick check, pIC50 >= 9? NCCS(=O)(=O)c1ccc(-c2cncc3ccccc23)c(-c2nnn[nH]2)c1S(N)(=O)=O.O=C(O)C(F)(F)F [Example 148, 2,2,2-trifluoroacetate]
Result: satisfied

Ask: Quick check, pIC50 >= 9? NCCS(=O)(=O)c1ccc(-c2cccc3sc(C(=O)O)nc23)c(-c2nn[nH]n2)c1S(N)(=O)=O
Result: satisfied

Recorded values, source patent US10227331B2.
